Hey, just so you know, these numbers are from PubChem BioAssay AID1418.

# assaySystem: Induced myeloid leukemia cell differentiation protein Mcl-1 (Homo sapiens) (UniProt Q07820)
# Sequence (Q07820 whole entry, looked up): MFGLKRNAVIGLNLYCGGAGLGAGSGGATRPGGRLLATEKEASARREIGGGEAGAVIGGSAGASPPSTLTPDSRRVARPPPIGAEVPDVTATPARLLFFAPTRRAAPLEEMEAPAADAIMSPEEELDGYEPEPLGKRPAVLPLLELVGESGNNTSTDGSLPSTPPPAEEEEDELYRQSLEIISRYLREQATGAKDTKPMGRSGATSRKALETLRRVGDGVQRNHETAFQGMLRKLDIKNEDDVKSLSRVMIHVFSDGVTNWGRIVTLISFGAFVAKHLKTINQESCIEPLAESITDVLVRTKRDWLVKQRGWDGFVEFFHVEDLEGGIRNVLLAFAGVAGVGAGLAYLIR
# experimentalProtocol: blockers of Bid binding to Mcl-1 – biochemical, TR-FRET, dose response (AID 1418)
# assaySetup: Mcl-1/Bid peptide binding, TR-FRET (europium/Dy647), 2 hr
Activity calls are given as the source filed them. No rule for the calls is given here.

compound	IC50
O=C(O)c1cnn2c(C(F)(F)F)cc(-c3ccco3)nc12	> 54 µM (inactive)
CCCCOc1ccc(C(=O)NCCC(=O)NCCCC(=O)OCC)cc1	> 54 µM (inactive)
CCOC(=O)c1sc2nc3c(SCCC(=O)O)cc(C(=O)c4cc(OC)ccc4O)cn3c(=O)c2c1C	1.66 µM
COc1ccc(C2Nc3ccccc3C(=O)N2O)cc1OC (centres undefined)	> 54 µM (inactive)
CC(Oc1ccc(Cl)cc1Cl)C(=O)N(C)c1ccccc1 (centres undefined)	> 54 µM (inactive)
CCN(CC)c1ccc(/C=N/Nc2cccc(C)c2)c(O)c1	> 54 µM (inactive)
COc1ccc(NC(=O)Cn2nnc(-c3ccccc3NC(=O)c3ccco3)n2)cc1	6.22 µM
Cc1csc(CCc2nc(C)cs2)n1	> 54 µM (inactive)
Cc1ccc(S(=O)(=O)N2CN3CCN(C3)C2)cc1	> 54 µM (inactive)
COc1ccccc1NC(=O)COc1cc(Br)c(CNCCCN2CCOCC2)cc1OC	> 54 µM (inactive)
N=c1oc2cc(O)ccc2cc1C(=O)Nc1nc2ccccc2s1	> 54 µM (inactive)
O=c1c(O)cccc2cc(O)c(O)c(O)c12	0.92 µM
CN(Cc1ccccc1)Cc1nc2c([nH]1)c(=O)[nH]c(=O)n2C	> 54 µM (inactive)
CC(Cc1ccccc1)NCC(=O)Nc1cc(N(C)C)nc2ccccc12 (centres undefined)	> 54 µM (inactive)
C#CCOCCOCCOCCNc1nc(N2CCN(C(=O)[C@H](Cc3ccc(O)cc3)n3cc([C@@H](N)C(C)CC)nn3)CC2)nc(N2CCN(C(=O)[C@H](Cc3cc4ccccc4[nH]3)n3cc([C@@H](N)C(C)CC)nn3)CC2)n1 (some centres undefined)	0.82 µM
CCOC(=O)Cc1csc(NC(=O)CSc2nnnn2-c2ccc(C)c(C)c2)n1	> 54 µM (inactive)
O=C(Cc1c(F)cccc1Cl)Nc1ccon1	> 54 µM (inactive)
COc1ccc(C(=O)N2CCN(Cc3ccccc3C)CC2)cc1OC	> 54 µM (inactive)
CC1=NOC(=O)/C1=C\c1ccc(-c2ccc(Cl)cc2Cl)o1	1.94 µM
O=c1oc2ccccc2n1CCn1c2ccccc2c2nc3ccccc3nc21	8.21 µM
O=C(NCC1CCCO1)c1cc([N+](=O)[O-])ccc1Cl (centres undefined)	> 54 µM (inactive)
CCOc1ccc(-c2ccc(/C=C3/C(=N)N4C=CSC4=NC3=O)o2)c([N+](=O)[O-])c1	0.86 µM
COc1cc(CNc2ccc(O)cc2)cc(Br)c1OCc1ccccc1F	> 54 µM (inactive)
C=CCn1cc(C(=O)NCc2ccco2)c(=O)c2cc(S(=O)(=O)N3CCCCCC3)ccc21	> 54 µM (inactive)
N#Cc1cc(-c2ccccc2)nc(Oc2ccccc2)n1	> 54 µM (inactive)
O=C(Nn1cnnc1)c1ccccc1CCc1ccccc1	> 54 µM (inactive)
O=C1NC(=O)N(c2ccc(F)cc2)C(=O)/C1=C/c1ccc2c(c1)CCCN2Cc1ccccc1	0.79 µM
O=C(Nc1ccc2c(c1)OCCO2)NC1(C(F)(F)F)Oc2ccccc2O1	> 54 µM (inactive)
O=C(NNC(=O)c1ccccc1Cl)c1ccccc1Cl	> 54 µM (inactive)
